# Tested on: SK-MEL-2 melanoma
# assay-summary: NCI-60 one-dose screen, 48 h (100 = growth as untreated, 0 = no growth, -100 = all killed)
# condition-parameters: 10 µM unless noted
# Method: Growth inhibition of the SK-MEL-2 human tumor cell line is measured as a screen for anti-cancer activity. Cells are grown in 96 well plates and exposed to the test compound for 48 hours. Compounds are tested at a single concentration, which is 10^-5 M for most compounds. The reported endpoint is percent growth (GI% or GIPRCNT), where numbers from 0 - 100% represent growth inhibition, and numbers from -100% - 0 represent cell death. For example, a value of 40 represents 60% growth inhibition. […]
About 83,000 compounds went through this panel and 20% of them were active in at least one assay; those are over-represented in the sample as a whole.
growth by entry:
The reply should be a number in %, with the unit left off.

-- ask Item COc1ccccc1C(=O)Nc1cccc(-c2cc(=O)c3c(OC)c(OC)c(OC)cc3o2)c1 has what recorded growth?
-- reply 31.1

New cases:
-- ask Item COC(=O)C(N)CC(C)C (stereo unspecified) has what recorded growth?
-- reply 101

-- ask Next entry: Cc1ccc(C(=O)C(Br)C(Br)c2ccccc2)cc1 (stereo unspecified)
-- reply 113

-- ask Next entry: CCOc1ccc(/C=N/NC(=O)c2cccc3ccccc23)cc1OCC
-- reply 106

-- ask Next entry: COc1ccc(OC)c(Cn2cc3c(c2)-c2oncc2CC3)c1
-- reply 45

-- ask Next entry: N=C(N)c1ccc(-c2ccc(-c3ccc(F)cc3)s2)cc1
-- reply -62.1

----------
# Tested on: HS 578T breast
# assay-summary: NCI-60 one-dose screen, 48 h (100 = growth as untreated, 0 = no growth, -100 = all killed)
# condition-parameters: 10 µM unless noted
The panel holds about 83,000 compounds, 20% with a hit somewhere; the sample as a whole holds those more often.
test-readout: growth (%)
The reply should be a number in %, with the unit left off.

// below: answered compounds
-- ask Item CSC1=Nc2c(c(C)c(-c3ccccc3)n2CCCCl)C2=NC(=O)CN12 has what recorded growth?
-- reply 84.6

-- ask Next entry: CC(C)(C)C(=O)OCOP(=O)(OCOC(=O)C(C)(C)C)C1CC(O)N(O)C1=O (centres undefined)
-- reply -4.97

-- ask Next entry: Cc1c([C@H](C(Cl)Cl)[C@H](O)[C@H]2C[C@H](C)C(=O)O2)ccc2c1C(=O)[C@H]1[C@H]2C[C@@H](Br)[C@@]23O[C@@H](CO[C@H]2O)CC13C (some centres undefined)
-- reply -23.2

New cases:
-- ask Item COc1ccc(C2CC(=O)c3c(O)cc(OC4OC(COC5OC(C)C(O)C(O)C5O)C(O)C(O)C4O)cc3O2)cc1O (centres undefined) has what recorded growth?
-- reply 106

-- ask Next entry: C=CCSc1nnc(COc2ccc3c(C)c(Cc4ccccc4)c(=O)oc3c2C)o1
-- reply 94.5

-- ask Next entry: CCN(CC)CCCC(C)Nc1c(C)cnc2cc(Cl)c(C)cc12 (centres undefined)
-- reply 96.3

-- ask Next entry: N=C(N)c1ccc(-c2ccc(-c3ccc(F)cc3)s2)cc1
-- reply -59.4

-- ask Next entry: CC(C)(C)c1ccc(OCCOC(=O)CBr)cc1
-- reply 108

-- ask Next entry: Nc1nc(-c2cccc(Br)c2)cc(-c2cc3ccccc3oc2=O)n1
-- reply 87.3

----------
# Test system: HCT-15 colon
# assay-summary: NCI-60 one-dose screen, 48 h (100 = growth as untreated, 0 = no growth, -100 = all killed)
# condition-parameters: 10 µM unless noted
The panel holds about 83,000 compounds, 20% with a hit somewhere; the sample as a whole holds those more often.
Sorting guide: entries reporting growth beneath 90% go in the rule met pile, the rest go in the rule not met pile.

Here's what some known entries look like.
-- ask Lab note: growth threshold 90%. Does this compound come in strictly under it? CCCCN(CCCC)CCCNc1c2c(nc3ccc(Cl)cc13)CCCC2
-- reply rule met

-- ask Next entry: CCCCCCCCCCCCCCCC[n+]1cccc(C#N)c1
-- reply rule met

-- ask Next entry: Brc1c(-c2ccncc2)nc2n1CCS2
-- reply rule not met

-- ask Next entry: CC(=O)Nc1nc(C)c(C(=O)NNC(=O)Nc2ccccc2)s1
-- reply rule not met

-- ask Next entry: CCC(C)(C)c1ccc(OCCCCCCN2CCN(c3ccc(C)c(Cl)c3)CC2)cc1
-- reply rule met

New cases:
-- ask Lab note: growth threshold 90%. Does this compound come in strictly under it? CCCC(=O)Nc1ccccc1C(=O)O
-- reply rule not met

-- ask Next entry: COc1ccc(Cn2cc3c(c2-c2ccccc2)CCc2cnoc2-3)cc1OC
-- reply rule met

-- ask Next entry: CC(=O)c1cc(Nc2cc(C)nc(N)n2)cc(C(C)=O)c1
-- reply rule not met

-- ask Next entry: Cc1c(Cc2ccccc2)c(=O)oc2c(C)c(OCc3n[nH]c(=S)o3)ccc12
-- reply rule met

-- ask Next entry: CCCCn1c(Cc2ccc(OC)cc2)nc2cc(OC)c(OC)cc2c1=O
-- reply rule not met

----------
# Tested on: SF-295 CNS
# assay-summary: NCI-60 one-dose screen, 48 h (100 = growth as untreated, 0 = no growth, -100 = all killed)
# condition-parameters: 10 µM unless noted
# Method: Cells are grown in 96 well plates and exposed to the test compound for 48 hours. Compounds are tested at a single concentration, which is 10^-5 M for most compounds. The reported endpoint is percent growth (GI% or GIPRCNT), where numbers from 0 - 100% represent growth inhibition, and numbers from -100% - 0 represent cell death. For example, a value of 40 represents 60% growth inhibition. A value of 0 means no net growth occurred over the course of the experiment. […]
The panel holds about 83,000 compounds, 20% with a hit somewhere; the sample as a whole holds those more often.
test-readout: growth (%)
The reply should be a number in %, with the unit left off.

-- ask Form entry - test system: SF-295 CNS; read-out: growth; compound: N=C(N)c1ccc(-c2ccc(-c3ccc(Cl)cc3)s2)s1
-- reply -68.8

-- ask Next entry: Cc1sc(NC(=O)c2ccc(C(C)(C)C)cc2)c(C(=O)O)c1C
-- reply 35.7

-- ask Next entry: O=C1N/C(=N\c2nnc(-c3ccc(O)cc3)s2)S/C1=C\c1ccccc1O
-- reply 94

-- ask Next entry: CCOC(=O)c1c(C)oc2ncnc(Nc3ccc(NC(=O)Nc4cccc(Cl)c4)cc3)c12
-- reply 79.6

-- ask Next entry: O=P(OCCCl)(OCCCl)C(O)c1ccccc1Cl (stereo unspecified)
-- reply 102

Read the next record carefully.
-- ask Form entry - test system: SF-295 CNS; read-out: growth; compound: COc1cc2c(c3c1c(=O)c1cccc(F)c1n3C)C=CC(C)(C)O2
-- reply 91.8

----------
# Test system: UO-31 renal
# assay-summary: NCI-60 one-dose screen, 48 h
# condition-parameters: 10 µM unless noted
The panel holds about 83,000 compounds, 20% with a hit somewhere; the sample as a whole holds those more often. Calls of active or inactive are those of the source. The calls were made as follows: active = growth percent below 10; inactive = the rest.
Mark one answer only. Choices: active, inactive

Here's what some known entries look like.
-- ask Hi team, can someone confirm the assay call for CC([C@H]1CCC2C3CCC4C[C@@H](N)CC[C@]4(C)C3CC[C@@]21C)N(C)C (stereo not given in full) ?
-- reply active

-- ask Next entry: N#CC1=C(N2CCOCC2)NC2c3ccccc3Sc3ccccc3N2C1=N (stereo not given)
-- reply inactive

-- ask Next entry: COc1ccc(-c2cc(C#N)c(NNC(C)=O)[nH]2)cc1
-- reply inactive

-- ask Next entry: Nc1cc(N)c2nc(NCCc3ccc(Cl)c(Cl)c3)cnc2c1
-- reply inactive

-- ask Next entry: Cc1cc2c(-c3nc4ccccc4n3C)c(O)c(O)cc2c(O)c1-c1c(C)cc2c(-c3nc4ccccc4n3C)c(O)c(O)cc2c1O
-- reply inactive

New cases:
-- ask Hi team, can someone confirm the assay call for c1ccc2[nH]c(-c3ccc(OCCCCCOc4ccc(-c5nc6ccccc6[nH]5)cc4)cc3)nc2c1 ?
-- reply inactive

-- ask Next entry: COCC(=O)NNc1[nH]c(-c2ccc(OC)cc2)cc1C#N
-- reply inactive

----------
# Test system: CAKI-1 renal
# assay-summary: NCI-60 one-dose screen, 48 h (100 = growth as untreated, 0 = no growth, -100 = all killed)
# condition-parameters: 10 µM unless noted
# Method: Growth inhibition of the CAKI-1 human tumor cell line is measured as a screen for anti-cancer activity. Cells are grown in 96 well plates and exposed to the test compound for 48 hours. Compounds are tested at a single concentration, which is 10^-5 M for most compounds. The reported endpoint is percent growth (GI% or GIPRCNT), where numbers from 0 - 100% represent growth inhibition, and numbers from -100% - 0 represent cell death. For example, a value of 40 represents 60% growth inhibition. […]
This is part of a sample that, as a whole, favours compounds with a hit. Of some 83,000 tested, about 20% had one in any assay.
growth by entry:
The reply should be a number in %, with the unit left off.

// below: answered compounds
-- ask Item COC(=O)c1cc(O)c2cc3c(cc2c1-c1cc(OC)c(OC)c(OC)c1)OCO3 has what recorded growth?
-- reply 30.2

-- ask Next entry: O=C(/C=C\c1ccccc1Cl)c1ccccc1
-- reply 90.8

-- ask Next entry: Nc1nc2c(c3cnccc13)C(c1ccc(Cl)c(Cl)c1)Cc1cnccc1-2 (stereo unspecified)
-- reply 4.1

-- ask Next entry: CCCCCCCCCCCCCCCCNC(=S)N/N=C/c1ccc(O)cc1O
-- reply 55.9

-- ask Next entry: Cc1cc(CSc2ccc(Cl)cc2)ccc1N
-- reply 95.1

-- ask Next entry: CCCCN(CCCC)c1ccc(C(=O)O)cc1
-- reply 103

-- ask Next entry: O=C1C(=O)c2ccccc2C(O)=C1CCCc1ccc(C2CCCC2)cc1
-- reply 67.8

-- ask Next entry: CC(=O)/C(=C/c1ccc(-c2ccccc2)cc1)C(=O)c1ccccc1
-- reply 91.3

New cases:
-- ask Item CN1CCN(Cc2ccc(NC(=O)c3cncc(C#Cc4c(N)ncc5ccc(F)cc45)c3)cc2C(F)(F)F)CC1 has what recorded growth?
-- reply 25.2

-- ask Next entry: Cc1nc(NC(=O)NC2CCCCC2)sc1C(=O)NN
-- reply 132

-- ask Next entry: COC(=O)/C(Br)=C/c1c[nH]c2ccc(Br)cc12
-- reply 69.1

-- ask Next entry: CCOC(=O)CSSCC(=O)OCC
-- reply 97.5

-- ask Next entry: CCCCCCN(CCCCCC)CCC(=O)Nc1ccc(S(=O)(=O)c2ccc(NC(=O)CCN(CCCCCC)CCCCCC)cc2)cc1
-- reply 86.6

-- ask Next entry: Cc1ccc(C(=O)Nc2ccc(CN3CCN(C)CC3)c(C(F)(F)F)c2)cc1C#Cc1cncc2ncccc12
-- reply 1.96

-- ask Next entry: COC(=O)C1CC(=O)N(C(=O)Nc2ccc(Cl)cc2Cl)C1 (stereo unspecified)
-- reply 95.6

-- ask Next entry: CNCCCNCCCCNCCCN1C(=O)c2ccc3c4c(ccc(c24)C1=O)C(=O)N(CCCNCc1ccccc1OC)C3=O
-- reply 28.6
